Test: phenotypic screen on post-Golgi transport, primary screen (AID 739);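 also: yeast cells grown in 1536-well plates; yeast grown about 18 h at 30C before absorbance read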
Details: post-Golgi transport phenotypic cell assay; at 10 µM
Out of some 98,000 compounds screened, about 880 (0.9%) were called active. Rule as the data show it: active = inhibition above about 30%; inactive = the rest. What follows is part of a selection rich in actives, with near analogues and random picks from the rest.
Response enum: True for active, False for inactive

Example entries and their recorded answers appear below.
input: Which result was noted for this molecule in the test: `CCOC(=O)/C(=C\c1ccc([N+](=O)[O-])cc1)C(=O)c1cc(C(C)=O)c(Nc2ccccc2)s1`
output: True

input: Which result was noted for this molecule in the test: NC(=O)N1CCCC1C(=O)Nc1ccc(Cl)c(Cl)c1 (stereo not drawn)
output: False

input: Which result was noted for this molecule in the test: `Cc1ccccc1/[N+]([O-])=C/c1ccncc1`
output: False

input: Which result was noted for this molecule in the test: `NC(=NC(=O)c1ccccc1)N1CCOCC1`
output: False

input: Which result was noted for this molecule in the test: `O=C(Nc1ccc(Cl)cc1)c1cc2nc(C3CC3)cc(C(F)(F)F)n2n1`
output: False

More entries:
input: Which result was noted for this molecule in the test: `O=C(NCCc1ccccc1)/C(=C\c1ccc([N+](=O)[O-])cc1)NC(=O)c1ccccc1`
output: False

input: Which result was noted for this molecule in the test: CC1(C)CCCC2=C1CC1C(=O)N(c3ccccc3)C(=O)C1C2 (stereo not drawn)
output: False

input: Which result was noted for this molecule in the test: `Fc1ccc(-n2c(Cc3ccccc3)nnc2SCc2nc(-c3ccc(Cl)cc3)no2)cc1`
output: False

input: Which result was noted for this molecule in the test: `O=C(C1CCN(S(=O)(=O)c2cccs2)CC1)N1CCCCCC1`
output: True

input: Which result was noted for this molecule in the test: COc1cccc(NC(=O)C2CCCN2C(=O)OCc2ccccc2)c1 (stereo not drawn)
output: True

input: Which result was noted for this molecule in the test: `CCCc1ccc(-c2c(C)sc(NC(=O)c3ccnn3C)c2C#N)cc1`
output: False

Provenance of the data: PubChem BioAssay AID739
